Origin of measurements: PubChem BioAssay AID1463

- experiment-notes: Counterscreen qHTS for Inhibitors of Tau Fibril Formation, Fluorescence Polarization; further: nearly all actives have a fitted effect of over 55% in size
- conditions: tau K18 P301L Alexa594 fluorescence, heparin fibrillization; series mostly up to 57.7 µM
The campaign covered roughly 280,000 compounds. About 2,600 (0.93%) were called active. Not shown: some 8% with an inconclusive outcome. The call rests on the fitted dose curve; in most records, active means well fitted curve in the direction sought with a large enough effect; inconclusive means small, poorly fitted or top-dose-only effect; inactive means flat fitted curve, though single readings scatter. Only a selection was taken, and actives are over-represented in it overall.
Output constraint: value belongs to active, inactive

Some solved cases for reference:
Cc1nn(Cc2ccc(F)cc2)c(C)c1NC(=O)c1cc(CC(C)C)on1: inactive
O=C(O)c1cccc(S(=O)(=O)Nc2ccc(O)cc2Sc2nc3ccccc3s2)c1: inactive
CN(C)c1cc2c(Nc3ccc4c(cnn4Cc4ccccc4)c3)ncnc2cn1: active
O=C(CC1SC(=Nc2ccccc2)N(Cc2ccccn2)C1=O)Nc1cccc(Cl)c1 (stereo unspecified): active
NC(=S)N/N=C/c1ccc([N+](=O)[O-])cc1: inactive

Asked: Status in this test for COc1ccc(C2Sc3ccccc3NC3=C2C(=O)c2ccccc23)c(OC)c1OC (stereo unspecified) ?
Given back: active

Asked: Status in this test for Clc1ccc(Nc2ncnc3c2nnn3Cc2ccccc2)cc1 ?
Given back: inactive

Asked: Status in this test for Cc1[nH]c2ccccc2c1CCN(Cc1cccs1)C(=S)NC(C)(C)C ?
Given back: inactive

Asked: Status in this test for CC(C)c1ccc(S(=O)(=O)Nc2ccc(O)c(Sc3nc4ccccc4s3)c2)cc1 ?
Given back: active

Asked: Status in this test for CCOC(=O)c1c(NC(C)=O)c2c3c(sc2n1Cc1c(C)cc(C)cc1C)CCCC3 ?
Given back: inactive

Asked: Status in this test for CCOc1ccccc1CNC(=O)Nc1cn(CC(C)C)c(=O)c2ccccc12 ?
Given back: inactive

Asked: Status in this test for COc1ccc(-n2nnc(-c3nsc(NC(=O)c4ccc(C)c(C)c4)n3)c2C)cc1Cl ?
Given back: inactive

Asked: Status in this test for Cc1ccc2c(=O)c(C(=O)c3ccc(Cl)cc3)cn(CC(=O)NC3CCCCC3)c2n1 ?
Given back: inactive

Asked: Status in this test for O=C1CN(C(=O)Nc2ccccc2C(F)(F)F)C(c2ccccc2)c2c(sc3c2CCCC3)N1 (stereo unspecified) ?
Given back: inactive

Asked: Status in this test for CC(=O)Nc1ccc(NC(=O)CSc2ncnc3c2cnn3Cc2ccccc2)cc1 ?
Given back: inactive

Asked: Status in this test for O=C(CSc1nc2ccccc2s1)Nc1ccc(C(=O)O)cc1 ?
Given back: inactive

Asked: Status in this test for O=C(N/N=C/c1ccc([N+](=O)[O-])cc1)C(=O)N1CCCC1 ?
Given back: inactive

Asked: Status in this test for CCOC(=O)c1ccc2c(c1)N(Cc1cccc(OC)c1)C(=O)c1ccccc1S2(=O)=O ?
Given back: inactive

---

- experiment-notes: Counterscreen qHTS for Inhibitors of Tau Fibril Formation, Fluorescence Polarization; further: nearly all actives have a fitted effect of over 55% in size
- conditions: tau K18 P301L (four-repeat tau fragment) Alexa594 fluorescence, heparin fibrillization; series mostly up to 57.7 µM
The campaign covered roughly 280,000 compounds. About 2,600 (0.93%) were called active. About 8% were inconclusive and are not listed. The call rests on the fitted dose curve; in most records, active means well fitted curve in the direction sought with a large enough effect; inconclusive means small, poorly fitted or top-dose-only effect; inactive means flat fitted curve, though single readings scatter. For the sample, actives were picked, then their nearest neighbours and some compounds at random.
Output constraint: value belongs to true (active), false (inactive)

Some solved cases for reference:
Cc1ccc(Oc2cc(NC(=O)CCCn3nc(C)c([N+](=O)[O-])c3C)cc([N+](=O)[O-])c2)cc1: true
CCOCCc1nn2c(=O)cc(COC(=O)CNC(=O)c3ccc(C(C)(C)C)cc3)nc2s1: false

Asked: Status in this test for CCc1ccc(NC(=O)Cn2nc(C)c([N+](=O)[O-])c2C)cc1 ?
Given back: false

Asked: Status in this test for CCCCNC(=O)CCNC(=O)c1ccc(C(C)(C)C)cc1 ?
Given back: false

Asked: Status in this test for COc1ccc(CNC(=O)CCCn2nc(C)c([N+](=O)[O-])c2C)cc1 ?
Given back: false
